# Test system: colon KM 20L2
# TEST DETAILS: Cancer cell growth inhibition, colon KM 20L2
# Type: cell-based, human
# CONDITION SUMMARY: Homo sapiens; Table 3; colon KM 20L2; read-out: Cancer cell growth inhibitory ED50
Exercise: for every item that follows, state its recorded IC50.

[Q] Need IC50 of COc1cc2c3c(cc[n+](C)c3c1OC)N(C)C=C2.[I-] [Compound 5] , thanks.
[A] 6.1 µg/mL

[Q] Need IC50 of COc1ccc(CN2C=Cc3cc(OC)c(OC)c4c3c2cc[n+]4C)cc1.[I-] [Compound 17] , thanks.
[A] 5.4 µg/mL

[Q] Need IC50 of COc1cc2ccnc3c2c(c1O)N(C)C=C3 [Compound 2, isoaaptamine] , thanks.
[A] > 10 µg/mL

----------
Exercise: for every item that follows, state its recorded inhibition at 30 µM.
# ASSAYED TARGET: PKC alpha (Homo sapiens)
# TEST DETAILS: Inhibition of PKC catalytic activity (peptide substrate phosphorylation)
# Assay type: biochemical
# CONDITION SUMMARY: 30 μM compound; 1 μM phorbol 12-myristate 13-acetate, 100 μg/ml phospholipid; mean±SEM, three experiments; read-out: percent inhibition of PKC catalytic activity

[Q] Need inhibition at 30 µM of COc1cc2c3c(cc[n+](C)c3c1OC)N(C)C=C2.[I-] , thanks.
[A] ≤ 6%

[Q] Need inhibition at 30 µM of COc1cc2c3c(ccnc3c1OC)N(Cc1ccccc1)C=C2.Cl [Compound 9a, hydrochloride] , thanks.
[A] ≤ 6%

[Q] Need inhibition at 30 µM of COc1cc(CN2C=Cc3cc(OC)c(OC)c4c3c2cc[n+]4Cc2cc(OC)c(OC)c(OC)c2)cc(OC)c1OC.[Br-] [Compound 10c] , thanks.
[A] 19.5%

[Q] Need inhibition at 30 µM of COc1ccc(CN2C=Cc3cc(OC)c(OC)c4c3c2cc[n+]4Cc2ccc(OC)cc2)cc1.[Br-] [Compound 10b] , thanks.
[A] 84.6%

[Q] Need inhibition at 30 µM of COc1ccc(CN2C=Cc3cc(OC)c(OC)c4nccc2c34)cc1.Cl [Compound 9b, hydrochloride] , thanks.
[A] ≤ 6%

[Q] Need inhibition at 30 µM of COc1ccc(C[n+]2ccc3c4c(cc(OC)c(OC)c42)C=CN3Cc2cc(OC)c(OC)c(OC)c2)cc1O.[Br-] [Compound 10d] , thanks.
[A] 43.2%

[Q] Need inhibition at 30 µM of COc1cc2c3c(ccnc3c1OC)N(C)C=C2 , thanks.
[A] ≤ 6%

[Q] Need inhibition at 30 µM of COc1cc(CN2C=Cc3cc(OC)c(OC)c4nccc2c34)cc(OC)c1OC.Cl [Compound 9c, hydrochloride] , thanks.
[A] ≤ 6%

----------
# Test system: colon KM 20L2
# TEST DETAILS: Cancer cell growth inhibition, colon KM 20L2
# Assay type: cell-based, human
# CONDITION SUMMARY: Homo sapiens; Table 3; colon KM 20L2; read-out: Cancer cell growth inhibitory ED50
Where a name gives a salt, the structure may show the parent alone.
Exercise: for every item that follows, state its recorded IC50.
# output: bare number, implied unit µg/mL

[Q] Need IC50 of Oc1cc2ccnc3c2c(c1O)NC=C3 [Compound 15, hydrobromide] , thanks.
[A] 0.3

[Q] Need IC50 of COc1ccc(CN2C=Cc3cc(OC)c(OC)c4nccc2c34)cc1.Cl [Compound 9b] , thanks.
[A] 3.9

----------
# ASSAYED TARGET: PKC alpha (Homo sapiens)
# TEST DETAILS: Inhibition of [3H]phorbol 12,13-dibutyrate binding to PKC alpha
# CONDITION SUMMARY: 30 μM compound; read-out: inhibition of [3H]phorbol 12,13-dibutyrate binding to PKC alpha
Exercise: for every item that follows, state its recorded inhibition at 30 µM.
# output: bare number, implied unit %

[Q] Need inhibition at 30 µM of COc1cc2c3c(ccnc3c1OC)N(Cc1ccccc1)C=C2.Cl [Compound 9a, hydrochloride] , thanks.
[A] 6.4

[Q] Need inhibition at 30 µM of COc1ccc(C[n+]2ccc3c4c(cc(OC)c(OC)c42)C=CN3Cc2cc(OC)c(OC)c(OC)c2)cc1O.[Br-] [Compound 10d] , thanks.
[A] 16

[Q] Need inhibition at 30 µM of COc1cc2ccnc3c2c(c1O)N(C)C=C3 [Compound 2, isoaaptamine] , thanks.
[A] 13

[Q] Need inhibition at 30 µM of COc1ccc(CN2C=Cc3cc(OC)c(OC)c4c3c2cc[n+]4Cc2ccc(OC)cc2)cc1.[Br-] [Compound 10b] , thanks.
[A] 12.6

[Q] Need inhibition at 30 µM of COc1ccc(CN2C=Cc3cc(OC)c(OC)c4nccc2c34)cc1.Cl [Compound 9b, hydrochloride] , thanks.
[A] 9.2

----------
# Tested on: Cryptococcus neoformans
# TEST DETAILS: Broth microdilution susceptibility assay, Cryptococcus neoformans
# Format: cell-based
# CONDITION SUMMARY: Table 6
READOUT KIND: Range of minimum inhibitory concentration

[Q] Need Range of minimum inhibitory concentration of COc1ccc(CN2C=Cc3cc(OC)c(OC)c4c3c2cc[n+]4Cc2ccc(OC)cc2)cc1.[Br-] [Compound 10b] , thanks.
[A] 32 to 64 µg/mL

----------
# System: murine P388 lymphocytic leukemia cell line
# TEST DETAILS: Cancer cell growth inhibition, murine P388 lymphocytic leukemia cell line
# Type: cell-based
# CONDITION SUMMARY: Mus musculus; Table 5; leukemia P388; read-out: Cancer Cell Line Results ED50
READOUT KIND: IC50

[Q] Need IC50 of COc1cc(CN2C=Cc3cc(OC)c(OC)c4c3c2cc[n+]4Cc2cc(OC)c(OC)c(OC)c2)cc(OC)c1OC.[Br-] [Compound 10c] , thanks.
[A] > 10 µg/mL

[Q] Need IC50 of COc1cc2c3c(ccnc3c1OC)N(C)C=C2 , thanks.
[A] > 10 µg/mL

[Q] Need IC50 of COc1ccc(C[n+]2ccc3c4c(cc(OC)c(OC)c42)C=CN3Cc2cc(OC)c(OC)c(OC)c2)cc1O.[Br-] [Compound 10d] , thanks.
[A] > 10 µg/mL

----------
Exercise: for every item that follows, state its recorded IC50.
# System: CNS SF-268
# TEST DETAILS: Cancer cell growth inhibition, CNS SF-268
# Assay type: cell-based, human
# CONDITION SUMMARY: Homo sapiens; Table 5; CNS SF-268; read-out: Cancer Cell Line Results ED50
# Method: Biology The cancer cell growth inhibitory properties were examined using the murine P388 lymphocytic leukemia cell line and a selection of human cancer cell lines. All of the synthetic products were evaluated against a minipanel of human cancer cell lines, the murine P388 lymphocytic leukemia cell line and a selection of microorganisms.

[Q] Need IC50 of COc1cc2c3c(ccnc3c1OC)N(Cc1ccccc1)C=C2.Cl [Compound 9a] , thanks.
[A] > 10 µg/mL

[Q] Need IC50 of COc1cc(CN2C=Cc3cc(OC)c(OC)c4nccc2c34)cc(OC)c1OC.Cl [Compound 9c] , thanks.
[A] > 10 µg/mL

[Q] Need IC50 of COc1cc(CN2C=Cc3cc(OC)c(OC)c4c3c2cc[n+]4Cc2cc(OC)c(OC)c(OC)c2)cc(OC)c1OC.[Br-] [Compound 10c] , thanks.
[A] > 10 µg/mL

[Q] Need IC50 of COc1cc2c3c(ccnc3c1OC)N(C)C=C2 [Compound 4, 4-Methylaaptamine] , thanks.
[A] > 10 µg/mL

[Q] Need IC50 of COc1ccc(C[n+]2ccc3c4c(cc(OC)c(OC)c42)C=CN3Cc2cc(OC)c(OC)c(OC)c2)cc1O.[Br-] [Compound 10d] , thanks.
[A] > 10 µg/mL

----------
Exercise: for every item that follows, state its recorded IC50.
# Test system: colon KM 20L2
# TEST DETAILS: Cancer cell growth inhibition, colon KM 20L2
# Type: cell-based, human
# CONDITION SUMMARY: Homo sapiens; Table 3; colon KM 20L2; read-out: Cancer cell growth inhibitory ED50
# Description: Evaluation of demethyloxyaaptamine (3), aaptamine (1), isoaaptamine (2) and hystatin 1 (11) against the Arizona State University Cancer Research Institute's human tumor cell line panel (Table 1) and the NCI 60-cell line human tumor screen were undertaken. […] All of the synthetic products were evaluated against a minipanel of human cancer cell lines, the murine P388 lymphocytic leukemia cell line and a selection of microorganisms.

[Q] Need IC50 of COc1cc2c3c(ccnc3c1O)N(C)C=C2 , thanks.
[A] > 10 µg/mL

[Q] Need IC50 of COc1cc2c3c(ccnc3c1OC)N(C)C=C2 , thanks.
[A] > 10 µg/mL

[Q] Need IC50 of CN1C=Cc2cc(O)c(O)c3nccc1c23 , thanks.
[A] > 10 µg/mL
